Biological target: AGO2 L192P (Homo sapiens, UniProt Q9UKV8 1-859, L192P;S387D;S824A;S828D;S831D;S834A)
Sequence (Q9UKV8 whole entry L192P/S387D/S824A/S828D/S831D/S834A): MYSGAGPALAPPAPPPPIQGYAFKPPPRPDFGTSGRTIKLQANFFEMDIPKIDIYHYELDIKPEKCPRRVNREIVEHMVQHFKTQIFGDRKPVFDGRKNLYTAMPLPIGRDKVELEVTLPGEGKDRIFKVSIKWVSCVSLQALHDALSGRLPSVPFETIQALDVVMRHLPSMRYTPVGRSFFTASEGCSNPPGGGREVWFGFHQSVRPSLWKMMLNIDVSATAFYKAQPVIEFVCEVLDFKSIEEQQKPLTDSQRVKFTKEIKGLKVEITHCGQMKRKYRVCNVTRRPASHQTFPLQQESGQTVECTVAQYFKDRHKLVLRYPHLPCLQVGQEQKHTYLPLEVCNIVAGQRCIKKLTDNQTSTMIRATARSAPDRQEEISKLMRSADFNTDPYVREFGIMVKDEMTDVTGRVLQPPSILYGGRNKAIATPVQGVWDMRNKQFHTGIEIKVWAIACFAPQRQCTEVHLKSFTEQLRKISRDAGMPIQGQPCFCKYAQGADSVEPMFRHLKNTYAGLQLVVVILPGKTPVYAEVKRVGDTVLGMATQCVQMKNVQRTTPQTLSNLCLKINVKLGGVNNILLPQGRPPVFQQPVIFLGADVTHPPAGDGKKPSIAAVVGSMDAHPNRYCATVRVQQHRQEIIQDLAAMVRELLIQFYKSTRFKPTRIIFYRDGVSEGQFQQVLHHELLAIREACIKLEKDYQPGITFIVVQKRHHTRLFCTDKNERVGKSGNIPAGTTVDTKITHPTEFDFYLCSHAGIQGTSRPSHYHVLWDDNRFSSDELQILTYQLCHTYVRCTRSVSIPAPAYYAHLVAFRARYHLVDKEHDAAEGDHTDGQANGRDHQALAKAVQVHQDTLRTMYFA
Experiment: RNA Bind-n-Seq (nitrocellulose filter binding and sequencing); miR-122 guide loaded in AGO2; 60 min incubation; 30 mM Tris pH 8.0, 100 mM potassium acetate, 2 mM magnesium acetate, 0.5 mM TCEP, 0.005% NP-40, 0.01 mg/ml yeast tRNA; 3 nM AGO2-miR-122, 100 nM RNA library; 60; high values mean tight binding
Details: protein: recombinant; tags: His6 (N-terminal, pFastBac HTA)
observedProperty: binding signal

Example entries and their recorded answers appear below.
* GCGCCTTG (ssRNA, constant regions annealed to DNA blockers; guide miR-122 5' phosphate) RNA 1: GAGUUCUACAGUCCGACGAUCCCAACGCGCCUUGCACCUGGAAUUCUCGGGUGCCAA RNA 2: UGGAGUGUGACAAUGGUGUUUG DNA 1: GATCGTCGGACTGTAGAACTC DNA 2: TTGGCACCCGAGAATTCCA | 0.365 fold enrichment over input
* ACACTTTA (ssRNA, constant regions annealed to DNA blockers; guide miR-122 5' phosphate) RNA 1: GAGUUCUACAGUCCGACGAUCCCAACACACUUUACACCUGGAAUUCUCGGGUGCCAA RNA 2: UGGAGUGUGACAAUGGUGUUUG DNA 1: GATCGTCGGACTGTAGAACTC DNA 2: TTGGCACCCGAGAATTCCA | 0.539 fold enrichment over input
* ATATCTCA (ssRNA, constant regions annealed to DNA blockers; guide miR-122 5' phosphate) RNA 1: GAGUUCUACAGUCCGACGAUCCCAACAUAUCUCACACCUGGAAUUCUCGGGUGCCAA RNA 2: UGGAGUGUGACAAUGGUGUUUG DNA 1: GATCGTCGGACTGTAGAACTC DNA 2: TTGGCACCCGAGAATTCCA | 0.635 fold enrichment over input

Challenge: Bench note: what binding signal did ATGTCCCG (ssRNA, constant regions annealed to DNA blockers; guide miR-122 5' phosphate) RNA 1: GAGUUCUACAGUCCGACGAUCCCAACAUGUCCCGCACCUGGAAUUCUCGGGUGCCAA RNA 2: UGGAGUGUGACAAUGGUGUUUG DNA 1: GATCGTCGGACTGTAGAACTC DNA 2: TTGGCACCCGAGAATTCCA show?
Response given: 0.319 fold enrichment over input
